# system: Acetylcholinesterase (Electrophorus electricus)
# Sequence (O42275 whole entry): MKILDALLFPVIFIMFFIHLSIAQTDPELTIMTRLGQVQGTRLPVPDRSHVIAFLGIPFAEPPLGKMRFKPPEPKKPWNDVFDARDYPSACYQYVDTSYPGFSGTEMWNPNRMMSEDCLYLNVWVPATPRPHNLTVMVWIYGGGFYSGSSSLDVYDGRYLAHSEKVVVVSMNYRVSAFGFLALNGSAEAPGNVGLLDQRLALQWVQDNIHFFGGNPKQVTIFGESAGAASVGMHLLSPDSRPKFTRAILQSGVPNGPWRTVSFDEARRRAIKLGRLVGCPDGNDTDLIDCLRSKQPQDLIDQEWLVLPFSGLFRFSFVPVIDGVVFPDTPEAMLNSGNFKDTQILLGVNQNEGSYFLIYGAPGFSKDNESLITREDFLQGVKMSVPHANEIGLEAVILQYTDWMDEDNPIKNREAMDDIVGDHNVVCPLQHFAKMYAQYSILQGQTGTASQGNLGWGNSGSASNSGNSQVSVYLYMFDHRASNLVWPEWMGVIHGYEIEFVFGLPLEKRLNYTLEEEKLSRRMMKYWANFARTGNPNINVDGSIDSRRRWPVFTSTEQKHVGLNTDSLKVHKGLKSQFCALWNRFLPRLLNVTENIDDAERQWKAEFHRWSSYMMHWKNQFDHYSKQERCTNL
measure: pIC50
On this scale, pIC50 is minus log10 of a concentration expressed in M (mol/L).

- compound-structure: "O=C(O)CCC(=O)NCCCCCCNc1c2c(nc3ccccc13)CCCC2"
  pIC50: 6.99
- compound-structure: "COc1cc([C@@H]2Oc3cc([C@H]4Oc5cc(O)cc(O)c5C(=O)[C@@H]4O)ccc3O[C@H]2COC(=O)CCC(=O)NCCCCCCNc2c3c(nc4ccccc24)CCCC3)ccc1O"
  pIC50: 7.27

Short answer please: pIC50, Acetylcholinesterase (Electrophorus electricus), entry "NCCCCCCNc1c2c(nc3ccccc13)CCCC2"
7.41

* * *

Below are IC50 values recorded for Cholinesterase (Equus caballus).
Respond numerically; units are nM and should not be typed.

Past entries and their recorded results:
- compound-structure: "COc1cc([C@@H]2Oc3cc([C@H]4Oc5cc(O)cc(O)c5C(=O)[C@@H]4O)ccc3O[C@H]2COC(=O)CCC(=O)NCCCCCCNc2c3c(nc4ccccc24)CCCC3)ccc1O"
  system: "Cholinesterase (Equus caballus)"
  unit-label: "nM"
  IC50: 49.7
- compound-structure: "NCCCCCCNc1c2c(nc3ccccc13)CCCC2"
  system: "Cholinesterase (Equus caballus)"
  unit-label: "nM"
  IC50: 2

Then there is this molecule:
Quick one: IC50 of "O=C(O)CCC(=O)NCCCCCCNc1c2c(nc3ccccc13)CCCC2" ?
361
